# System: L1210 leukemia ip in BDF1 mice, survival T/C
# METHOD DESCRIPTION: NCI In Vivo Anticancer Drug Screen. Data for tumor model L1210 Leukemia (intraperitoneal) in B6D2F1 (BDF1) mice
# TEST CONDITIONS: endpoint: mean survival time; dose: 200.0 mg/kg/injection; schedule: Q01DX001 (ip); vehicle: saline with Tween-80; higher = longer survival
Toxic doses and inconclusive results are not listed.
molecules and their reported T/C
OBSERVED PROPERTY: T/C

                                    molecule  observed_property          reported
 0  CCOC(=O)c1[nH]c(C)c(C(=O)OCC)c1-c1ccccc1                T/C  106 % of control
 1  O=C(c1ccccc1)c1cc(Cl)ccc1NC(=O)C(Cl)(Cl)Cl                T/C   92 % of control
 2  CC(=O)OC1OC2COC(C)(C)OCC2C(OC(C)=O)C1OC(C)=O (stereo not drawn)                T/C  104 % of control
 3  COc1ccc(NC(=S)/C(=C(/[O-])c2ccc(C)cc2)[n+]2ccccc2)cc1                T/C  102 % of control
 4   O=[N+]([O-])c1cccc(-c2nc3ncncc3[nH]2)c1                T/C   98 % of control
 5           O=C(c1cccs1)c1cscc1C(=O)c1cccs1                T/C   95 % of control
 6  CC1=C(C)Cc2c(-c3ccccc3)oc(-c3ccccc3)c2C1                T/C   90 % of control
 7           CC(=O)n1c2c(n(C(C)=O)c1=O)CCCC2                T/C   98 % of control
 8  Nc1cccc(CCc2nc(N)nc(N)c2-c2ccc(Cl)c(Cl)c2)c1                T/C  109 % of control
 9                           CCC/C=C(/C=O)CC                T/C   96 % of control
10  O=C1C=C(c2ccccc2)C(O)(c2ccccc2)O1 (stereo not drawn)                T/C  103 % of control
11             Cc1ccc(Cl)cc1NC(=O)Nc1ccccc1F                T/C   92 % of control
12     CCCCCCCCCC(C)CCCCC (stereo not drawn)                T/C   98 % of control
13         O=c1ccc([N+](=O)[O-])cn1Cc1ccccc1                T/C  100 % of control
14  CC(=O)NC1C(OCc2ccccc2)OC2COC(C)(C)OC2C1O (stereo not drawn)                T/C   93 % of control
15    CC1NC(=O)OC12CCCCC2 (stereo not drawn)                T/C   92 % of control
16  CCOC(=O)c1ccc(NC(=O)Nc2cc(OC)c(Cl)cc2OC)cc1                T/C  101 % of control
17                 CC(=O)Nc1ccc(C(C)(C)C)cc1                T/C   95 % of control

* * *

molecules and their reported T/C
# Tested on: L1210 leukemia ip in BDF1 mice, survival T/C
# METHOD DESCRIPTION: NCI In Vivo Anticancer Drug Screen. Data for tumor model L1210 Leukemia (intraperitoneal) in B6D2F1 (BDF1) mice
# TEST CONDITIONS: endpoint: mean survival time; dose: 12.5 mg/kg/injection; schedule: Q04DX003 (ip); vehicle: Klucel (hydroxypropylcellulose) (HPC); higher = longer survival
Inconclusive results and toxic doses are left out.
OBSERVED PROPERTY: T/C

>>> df
                                   molecule  observed_property          reported
0           O=C(c1ccccc1)C(Cl)C(=O)c1ccccc1                T/C   94 % of control
1  COc1ccccc1OCCOCCNC1C(C)CCCC1(C)C (centres undefined)                T/C  100 % of control
2     CCOC(=O)C(C#N)N=O (centres undefined)                T/C   91 % of control
3     CC(=O)Nc1ccc(CCCCc2cccc(C(=N)N)c2)cc1                T/C  102 % of control

* * *

# Test system: L1210 leukemia ip in BDF1 mice, survival T/C
# METHOD DESCRIPTION: NCI In Vivo Anticancer Drug Screen. Data for tumor model L1210 Leukemia (intraperitoneal) in B6D2F1 (BDF1) mice
# TEST CONDITIONS: endpoint: mean survival time; dose: 200.0 mg/kg/injection; schedule: Q01DX009 (ip); vehicle: saline; higher = longer survival
Inconclusive results and toxic doses are left out.
molecules and their reported T/C
OBSERVED PROPERTY: T/C

>>> print(df.to_string())
                                   molecule          reported
0                   CCOC(CNC(=O)CC(C)=O)OCC  104 % of control
1  OC(C1CO1)(C(F)(F)F)C(F)(F)F (centres undefined)  106 % of control
2  Cc1cc([N+](=O)[O-])c(C)c([N+](=O)[O-])c1Cl   95 % of control
3  COc1ccccc1C1CCCCCC1O (centres undefined)   98 % of control
4    O=C1CCCC1CN1CCOCC1 (centres undefined)   96 % of control
5                    CCc1cc(CC)c(CC)c(CC)c1   87 % of control
6             COC(=O)C1=C[N+](C)(C)N=C1[O-]   94 % of control
7                                    [Mg+2]   95 % of control
8                               CSC(=S)NC#N   89 % of control

* * *

compounds and their reported T/C
# Test system: L1210 leukemia ip in BDF1 mice, survival T/C
# METHOD DESCRIPTION: NCI In Vivo Anticancer Drug Screen. Data for tumor model L1210 Leukemia (intraperitoneal) in B6D2F1 (BDF1) mice
# TEST CONDITIONS: endpoint: mean survival time; dose: 25.0 mg/kg/injection; schedule: Q04DX002 (ip); vehicle: saline; higher = longer survival
Inconclusive results and toxic doses are left out.
OBSERVED PROPERTY: T/C

>>> print(df.to_string())
                                   compound          reported
0  CCC(=O)NC(CC(C)C)C(=O)NC(CC(C)C)C(=O)NC(C=O)CCCN=C(N)N (stereo not given) (tested in a mixture with another compound)   98 % of control
1                             CCCCN=C(N)CCl  106 % of control
2                           COc1ccc(CCN)cc1  101 % of control
3    CC(NC(=O)CCN)C(=O)O (stereo not given)   96 % of control
4  CCCCC(=O)N1C(C)CCCC1C (stereo not given)   88 % of control

* * *

# System: L1210 leukemia ip in BDF1 mice, survival T/C
# METHOD DESCRIPTION: NCI In Vivo Anticancer Drug Screen. Data for tumor model L1210 Leukemia (intraperitoneal) in B6D2F1 (BDF1) mice
# TEST CONDITIONS: endpoint: mean survival time; dose: 50.0 mg/kg/injection; schedule: Q01DX001 (ip); vehicle: saline; higher = longer survival
Toxic doses and inconclusive results are not listed.
compounds and their reported T/C
OBSERVED PROPERTY: T/C

>>> print(df.to_string())
                                   compound  observed_property          reported
0                     Cn1cc(N)c(=O)[nH]c1=O                T/C  101 % of control
1                            CC(=O)c1cccnc1                T/C  104 % of control
2                          COCC(=O)c1ccccc1                T/C   96 % of control
3  O=C1c2ccccc2C(=O)C2C1C(c1ccccc1)N(c1ccccc1)C2c1ccccc1 (stereo not drawn)                T/C   94 % of control
4                         NC(=S)c1n[nH]nc1N                T/C  104 % of control
5                             O=S1(=O)C=CC1                T/C  115 % of control
6                            Cn1ncc(C#N)c1N                T/C   98 % of control
7                                 O=C(O)CCl                T/C   98 % of control
